tested on: NCI-N87; test: Free payload potency in cell lines (96 h): NCI-N87; format: cell-based; conditions: NCI-N87 (Stomach)
MEASUREMENT NAME: pIC50
Convention used: pIC50 is expressed as -log10 of the molar concentration.

Recorded pIC50 for COc1cccc2c1C(=O)c1c(O)c3c(c(O)c1C2=O)C[C@@](O)(C(=O)CO)C[C@@H]3O[C@H]1C[C@H]2[C@H](O[C@@H]3[C@@H](OC)OCCN32)[C@H](C)O1 [PNU159682] on NCI-N87 was 9.91

* * *

system: Panc-1; test: Free payload potency in cell lines (96 h): Panc-1; assay type: cell-based; details: Panc-1 (Pancreatic)
MEASUREMENT NAME: pIC50
Convention used: pIC50 is expressed as -log10 of the molar concentration.

The molecule identified as COc1cccc2c1C(=O)c1c(O)c3c(c(O)c1C2=O)C[C@@](O)(C(=O)CO)C[C@@H]3O[C@H]1C[C@H]2[C@H](O[C@@H]3[C@@H](OC)OCCN32)[C@H](C)O1 [PNU159682] registered its pIC50 at 10.59
